IC50 values for the compounds below.
Tested on: Wnt signaling
assay procedure: TopFlash reporter gene bioassay in SW480 cells
Assay type: cell-based
condition info: Homo sapiens, SW480, TopFlash reporter gene assay, inhibition of Wnt signaling; read-out: RGA, IC50 (μM) TopF
Answer format: numeric, µM implied, no suffix.

Before answering, review these 5 worked examples.
| smi | readout kind | value measured |
| --- | --- | --- |
| C=CCN1CC(=O)N2[C@@H](Cc3ccc(O)cc3)C(=O)N(Cc3cccc(C4CC4)n3)C[C@@H]2N1C(=O)NCc1ccccc1 | IC50 | 1.1 |
| C=CCN1CC(=O)N2[C@@H](Cc3ccc(O)cc3)C(=O)N(Cc3csc4cc(NC(=O)NC)ccc34)C[C@@H]2N1C(=O)NCc1ccccc1 | IC50 | 11.8 |
| C=CCN1CC(=O)N2[C@@H](Cc3ccc(O)cc3)C(=O)N(Cc3ccccc3Sc3ccc(Cl)cc3)C[C@@H]2N1C(=O)NCc1ccccc1 | IC50 | 3.97 |
| C=CCN1CC(=O)N2[C@@H](Cc3ccc(O)cc3)C(=O)N(Cc3csc4ccc(N)cc34)C[C@@H]2N1C(=O)NCc1ccccc1 | IC50 | 1.21 |
| C=CCN1CC(=O)N2[C@@H](Cc3ccc(O)cc3)C(=O)N(Cc3cccc(-c4ccc(F)nc4)c3)C[C@@H]2N1C(=O)NCc1ccccc1 | IC50 | 0.56 |

Briefly, IC50 measured for C=CCN1CC(=O)N2[C@@H](Cc3ccc(O)cc3)C(=O)N(Cc3cccc(C(=O)NO)c3)C[C@@H]2N1C(=O)NCc1ccccc1 : 9.3

Briefly, IC50 measured for C=CCN1CC(=O)N2[C@@H](Cc3ccc(O)cc3)C(=O)N(Cc3cccc(OC)c3OC3Cc4ccccc4C3)C[C@@H]2N1C(=O)NCc1ccccc1 : 4.33

Briefly, IC50 measured for C=CCN1CC(=O)N2[C@@H](Cc3ccc(O)cc3)C(=O)N(Cc3cccc(-c4ccccc4)c3)C[C@@H]2N1C(=O)NCc1ccccc1 : 1.94

Briefly, IC50 measured for C=CCN1CC(=O)N2[C@@H](Cc3ccc(O)cc3)C(=O)N(Cc3ccccc3N3CCCC3)C[C@@H]2N1C(=O)NCc1ccccc1 : 1.11

Briefly, IC50 measured for C=CCN1CC(=O)N2[C@@H](Cc3ccc(O)cc3)C(=O)N(Cc3cccc(C(=O)Nc4cc[nH]n4)c3)C[C@@H]2N1C(=O)NCc1ccccc1 : 8.43

Briefly, IC50 measured for C=CCN1CC(=O)N2[C@@H](Cc3ccc(O)cc3)C(=O)N(Cc3csc4cc(NCCC(C)(C)C)ccc34)C[C@@H]2N1C(=O)NCc1ccccc1 : 0.72

Briefly, IC50 measured for C=CCN1CC(=O)N2[C@@H](Cc3ccc(O)cc3)C(=O)N(Cc3ccc(OC)c(-c4cccnc4)c3)C[C@@H]2N1C(=O)NCc1ccccc1 : 3.27

Briefly, IC50 measured for C=CCN1CC(=O)N2[C@@H](Cc3ccc(O)cc3)C(=O)N(Cc3cccc4c(-c5ccccc5)cn(S(=O)(=O)c5ccccc5)c34)C[C@@H]2N1C(=O)NCc1ccccc1 : 0.52

Briefly, IC50 measured for C=CCN1CC(=O)N2[C@@H](Cc3ccc(O)cc3)C(=O)N(Cc3ccc(F)c4scnc34)C[C@@H]2N1C(=O)NCc1ccccc1F : 12.5

Briefly, IC50 measured for C=CCN1CC(=O)N2[C@@H](Cc3ccc(O)cc3)C(=O)N(Cc3cccc4c(Cl)c[nH]c34)C[C@@H]2N1C(=O)NCc1ccccc1 : 0.43

Briefly, IC50 measured for C=CCN1CC(=O)N2[C@@H](Cc3ccc(O)cc3)C(=O)N(Cc3cccc(-c4cccnc4)n3)C[C@@H]2N1C(=O)NCc1ccccc1 : 3.87

Briefly, IC50 measured for C=CCN1CC(=O)N2[C@@H](Cc3ccc(O)cc3)C(=O)N(Cc3csc4cc(NS(N)(=O)=O)ccc34)C[C@@H]2N1C(=O)NCc1ccccc1 : 28.8
